Metric Name: IC50

Reported CYP2C19 (Homo sapiens, UniProt P33261) IC50 for item Cc1cccc(OC2CCN(Cc3cc(=O)[nH]c(=O)[nH]3)CC2)c1C [GSK2556286] was > 25 µM

---

System Under Test: CYP3A4 (Homo sapiens, UniProt P08684)
Sequence (P08684 2-503): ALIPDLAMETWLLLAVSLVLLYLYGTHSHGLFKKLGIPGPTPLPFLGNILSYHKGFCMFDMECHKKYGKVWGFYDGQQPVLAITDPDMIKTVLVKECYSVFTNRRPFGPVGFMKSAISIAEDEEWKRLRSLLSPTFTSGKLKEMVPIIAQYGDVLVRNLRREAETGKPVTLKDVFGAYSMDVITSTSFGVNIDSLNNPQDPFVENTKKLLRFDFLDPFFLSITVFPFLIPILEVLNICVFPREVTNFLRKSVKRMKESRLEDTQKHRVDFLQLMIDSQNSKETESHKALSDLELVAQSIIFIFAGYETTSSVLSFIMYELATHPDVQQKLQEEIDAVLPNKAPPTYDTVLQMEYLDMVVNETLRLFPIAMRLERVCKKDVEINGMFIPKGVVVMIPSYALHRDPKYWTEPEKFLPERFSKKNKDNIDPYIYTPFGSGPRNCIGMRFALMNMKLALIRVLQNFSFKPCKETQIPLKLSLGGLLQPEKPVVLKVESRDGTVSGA
Measurement Protocol: CYP activity inhibition in microsomes
Type: biochemical
Condition Summary: microsomes with NADPH; direct inhibition
Metric Name: IC50

Form: molecule = Cc1cccc(OC2CCN(Cc3cc(=O)[nH]c(=O)[nH]3)CC2)c1C ; IC50 = > 25 µM

---

System Under Test: UniProt:P10635
Sequence (P10635 whole entry): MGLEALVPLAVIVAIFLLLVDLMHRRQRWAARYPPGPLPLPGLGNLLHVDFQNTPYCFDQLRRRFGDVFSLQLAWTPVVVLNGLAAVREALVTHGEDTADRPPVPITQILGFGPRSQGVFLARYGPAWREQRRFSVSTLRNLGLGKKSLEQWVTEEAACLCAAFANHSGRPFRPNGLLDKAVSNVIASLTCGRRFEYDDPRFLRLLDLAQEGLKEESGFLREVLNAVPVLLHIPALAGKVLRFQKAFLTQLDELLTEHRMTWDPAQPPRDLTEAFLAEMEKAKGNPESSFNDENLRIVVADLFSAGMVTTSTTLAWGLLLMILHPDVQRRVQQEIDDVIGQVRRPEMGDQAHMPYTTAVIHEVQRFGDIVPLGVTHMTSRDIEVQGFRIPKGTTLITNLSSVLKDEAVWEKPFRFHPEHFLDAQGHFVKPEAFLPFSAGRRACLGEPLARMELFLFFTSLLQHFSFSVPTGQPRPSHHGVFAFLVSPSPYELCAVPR
Measurement Protocol: CYP activity inhibition in microsomes
Format: biochemical
Condition Summary: microsomes with NADPH; direct inhibition
Metric Name: IC50

Reported UniProt:P10635 IC50 for item Cc1cccc(OC2CCN(Cc3cc(=O)[nH]c(=O)[nH]3)CC2)c1C was > 25 µM
